All figures here come from paper PMC10244618.

B1: NF2 (merlin) isoform 7, human, full length (507 aa, lacks exons 2-3 = isoform-1 residues 39-121; exon-16 C-terminus), P35240-4 (parent)
chain: MAGAIASRMSFSSLKRKQPKTFTVRIVTMDAEMEFNCEVKKQILDEKIYCPPEASVLLASYAVQAKYGDYDPSVHKRGFLAQEELLPKRVINLYQMTPEMWEERITAWYAEHRGRARDEAEMEYLKIAQDLEMYGVNYFAIRNKKGTELLLGVDALGLHIYDPENRLTPKISFPWNEIRNISYSDKEFTIKPLDKKIDVFKFNSSKLRVNKLILQLCIGNHDLFMRRRKADSLEVQQMKAQAREEKARKQMERQRLAREKQMREEAERTRDELERRLLQMKEEATMANEALMRSEETADLLAEKAQITEEEAKLLAQKAAEAEQEMQRIKATAIRTEEEKRLMEQKVLEAEVLALKMAEESERRAKEADQLKQDLQEAREAERRAKQKLLEIATKPTYPPMNPIPAPLPPDIPSFNLIGDSLSFDFKDTDMKRLSMEIEKEKVEYMEKSKHLQEQLNELKTEIEALKLKERETALDILHNENSDRGGSSKHNTIKKPQAQGRRPICI

Variants of: B1
ASSAY COMMENT: reverse yeast two-hybrid deep mutational scan (rY2H-seq): NF2 isoform 7 mutant library as bait mated with wild-type prey strains; selection on medium lacking adenine for non-interacting pairs; NextSeq paired-end sequencing; enrichment vs …
CONDITION: with PIK3R3 (phosphatidylinositol 3-kinase regulatory subunit gamma), Q92569; yeast diploids after mating (RBait_S3 x RPrey_S3), 30 °C, selection for reporter genes on NB agar; human tyrosine kinase ABL2 co-expressed as the active kinase …; HIGHER = WEAKER BINDING (the opposite of display enrichments): higher = stronger loss of interaction: reverse Y2H selects yeast in which bait and prey do NOT interact (growth without adenine), so a …; hits-only table; scale: rY2H score; numbering: uniprot, sequence starts at 1
TEST READOUT: enrichment
// no unit string in output, number only

S294F: 2.27
T336E: 3.42
S73A: 4.51
K356L: 7.08
R258V: 1.6
N402E: 1.42
L389K: 2.43
M401A: 1.56
R270K: 4.09
R89G: 1.41

Consider the additional variant presented here.
Item under review: A290V . Reported enrichment?
2.94
